Tested on: lysine peptide Ac-RFAAKAA-COOH
Assay: efficacy of lysine peptide change (negative = depletion) (% activity); higher = less depletion
Details: incubation time: 24 h
Counter-ions that a name gives are not always drawn.
property label: efficacy of lysine peptide change
Hey, just send me the number, nothing else.

Challenge: Give its efficacy of lysine peptide change value. Item: CCCCCCCC/C=C\CCCCCCCC(=O)N(C)CC(=O)O
Response given: 3.95

Challenge: Give its efficacy of lysine peptide change value. Item: N=C1C=CC(=C(c2ccc(N)cc2)c2ccc(N)cc2)C=C1 [C.I. Basic Red 9 monohydrochloride]
Response given: 182

Challenge: Give its efficacy of lysine peptide change value. Item: Clc1nc(C(Cl)(Cl)Cl)c(Cl)c(Cl)c1Cl
Response given: 1.85

Challenge: Give its efficacy of lysine peptide change value. Item: O=C(O)c1cc(O)c2ccccc2c1O [1,4-dihydroxy-2-naphthoic acid*]
Response given: -107

Challenge: Give its efficacy of lysine peptide change value. Item: CC(C)CC(C)Nc1ccc(Nc2ccccc2)cc1 (stereo not given)
Response given: 2.97

Challenge: Give its efficacy of lysine peptide change value. Item: NC(=S)NC(N)=S
Response given: -0.11

Challenge: Give its efficacy of lysine peptide change value. Item: O=c1n(CC2CO2)c(=O)n(CC2CO2)c(=O)n1CC1CO1 (stereo not given) [Triglycidyl isocyanurate]
Response given: 35

Challenge: Give its efficacy of lysine peptide change value. Item: CCOc1ccc2nc3cc(N)ccc3c(N)c2c1 [Ethacridine lactate monohydrate]
Response given: 107

Challenge: Give its efficacy of lysine peptide change value. Item: CCCCNC(=O)OCC#CI
Response given: 64.6

Challenge: Give its efficacy of lysine peptide change value. Item: CCOP(=S)(OCC)SC(CCl)N1C(=O)c2ccccc2C1=O (stereo not given)
Response given: -69.5

Challenge: Give its efficacy of lysine peptide change value. Item: O=C1c2ccccc2C(=O)C1c1ccc2ccccc2n1
Response given: -13.8

* * *

Measured efficacy of lysine peptide change, listed per entry for reference.
Test system: lysine peptide Ac-RFAAKAA-COOH
Experiment: efficacy of lysine peptide change (negative = depletion) (% activity); higher = less depletion
Conditions: incubation time: 24 h
Structures can show the parent of a compound that is named as a salt.
Hey, just send me the number, nothing else.

Challenge: Give its efficacy of lysine peptide change value. Item: CCCCCCCCCCCCN(CCO)CCO
Response given: 109

Challenge: Give its efficacy of lysine peptide change value. Item: CCCCc1ccc2[nH]c(NC(=O)OC)nc2c1
Response given: 56

Challenge: Give its efficacy of lysine peptide change value. Item: CN(C)c1ccc(C(=C2C=CC(=[N+](C)C)C=C2)c2ccccc2)cc1 [Malachite green oxalate*]
Response given: 36.4

Challenge: Give its efficacy of lysine peptide change value. Item: CC(C)=CCC/C(C)=C\CO
Response given: 21.2

Challenge: Give its efficacy of lysine peptide change value. Item: Cc1ccc2c(c1[N+](=O)[O-])C(=O)c1ccccc1C2=O
Response given: 0.29

Further cases:
Challenge: Give its efficacy of lysine peptide change value. Item: COc1ccccc1N [2-Methoxyaniline hydrochloride]
Response given: -4.19

Challenge: Give its efficacy of lysine peptide change value. Item: CCCCCCCCn1sc(Cl)c(Cl)c1=O
Response given: -94.5

Challenge: Give its efficacy of lysine peptide change value. Item: Oc1c(Br)cc(Br)c2cccnc12
Response given: -14.3

Challenge: Give its efficacy of lysine peptide change value. Item: Nc1cc(-c2ccncc2)c[nH]c1=O
Response given: 2.29

* * *

Tested on: cysteine peptide Ac-RFAACAA-COOH
Assay: AC50 of cysteine peptide concentration-response (direction given by sign of efficacy); higher = less potent
Conditions: incubation time: 24 h
Where a name gives a salt, the structure may show the parent alone.
Rule: measured AC50 below 20 µM gets Satisfied; anything equal to or greater than 20 µM gets Not satisfied.

Completed entries (count: 3):
Challenge: Is AC50 of COc1cccc2c1C(=O)c1c(O)c3c(c(O)c1C2=O)C[C@@](O)(C(=O)CO)C[C@@H]3O[C@H]1C[C@H](N)[C@H](O)[C@H](C)O1 [Doxorubicin*] strictly below 20 µM?
Response given: Satisfied

Challenge: Is AC50 of CC(C)(C)c1cc(O)ccc1O [tert-Butylhydroquinone] strictly below 20 µM?
Response given: Not satisfied

Challenge: Is AC50 of O=C(Nc1ncc([N+](=O)[O-])s1)c1cccs1 [Tenonitrozole] strictly below 20 µM?
Response given: Not satisfied

Further cases:
Challenge: Is AC50 of CS/C(C)=N\OC(=O)N(C)SN(C)C(=O)O/N=C(\C)SC [Thiodicarb] strictly below 20 µM?
Response given: Satisfied

Challenge: Is AC50 of COc1ccc(C(=O)/C(Br)=C\C(=O)O)cc1 [Cytembena] strictly below 20 µM?
Response given: Not satisfied

Challenge: Is AC50 of Oc1ccc(/C=C/c2cc(O)cc(O)c2)cc1 [Resveratrol] strictly below 20 µM?
Response given: Not satisfied

Challenge: Is AC50 of C=CC(=O)OCCn1c(=O)n(CCOC(=O)C=C)c(=O)n(CCOC(=O)C=C)c1=O strictly below 20 µM?
Response given: Satisfied

Challenge: Is AC50 of NNCc1ccccc1 [BENZYLHYDRAZINE HYDROCHLORIDE] strictly below 20 µM?
Response given: Not satisfied

Challenge: Is AC50 of [Cl][Bi]([Cl])([c]1ccccc1)([c]1ccccc1)[c]1ccccc1 [Triphenylbismuthine dichloride] strictly below 20 µM?
Response given: Satisfied

Challenge: Is AC50 of COP(=S)(Oc1cc(Cl)c(Br)cc1Cl)c1ccccc1 (configuration not stated) [Leptophos] strictly below 20 µM?
Response given: Not satisfied

Challenge: Is AC50 of C=C1CC[C@H](O)C/C1=C/C=C1\CCC[C@]2(C)[C@@H]([C@H](C)/C=C/[C@H](C)C(C)C)CC[C@@H]12 [Ergocalciferol*] strictly below 20 µM?
Response given: Not satisfied

Challenge: Is AC50 of CC(C)(C)c1ccc(S)cc1 [4-tert-Butylbenzenethiol] strictly below 20 µM?
Response given: Not satisfied

Challenge: Is AC50 of CCCCNC(=O)OCC#CI [Carbamic acid, butyl-, 3-iodo-2-propynyl ester] strictly below 20 µM?
Response given: Satisfied

Challenge: Is AC50 of O=C1OC(CCN2CCCCC2)OC1(c1ccccc1)c1ccccc1 (configuration not stated) [Pipoxolan hydrochloride] strictly below 20 µM?
Response given: Satisfied

Challenge: Is AC50 of CC1=C(/C=C/C(C)=C\C=C\C(C)=C\C(=O)O)C(C)(C)CCC1 [9-cis Retinoic acid] strictly below 20 µM?
Response given: Not satisfied

Challenge: Is AC50 of COc1cc(/C=C2\CCC/C(=C\c3ccc(O)c(OC)c3)C2=O)ccc1O [Cyclovalone] strictly below 20 µM?
Response given: Satisfied

Challenge: Is AC50 of Nc1cc(Cl)ccc1O [2-Amino-4-chlorophenol] strictly below 20 µM?
Response given: Satisfied

Challenge: Is AC50 of Cc1ccc2c(c1N)C(=O)c1ccccc1C2=O [1-Amino-2-methylanthraquinone] strictly below 20 µM?
Response given: Not satisfied

Challenge: Is AC50 of C=CC(C)(CCC=C(C)C)OC(=O)CC(C)C (configuration not stated) [Linalyl isovalerate] strictly below 20 µM?
Response given: Satisfied

Challenge: Is AC50 of S=C=NCc1ccccc1 [BENZYL ISOTHIOCYANATE] strictly below 20 µM?
Response given: Not satisfied

Challenge: Is AC50 of CC(C)(C)c1cc(O)c(C(C)(C)C)cc1O [2,5-Di-tert-butylbenzene-1,4-diol] strictly below 20 µM?
Response given: Not satisfied

Challenge: Is AC50 of c1ccc2c(c1)OCC(C1=NCCN1)O2 (configuration not stated) [Idazoxan] strictly below 20 µM?
Response given: Not satisfied

Challenge: Is AC50 of CN(C)c1ccc(C(=C2C=CC(=[N+](C)C)C=C2)c2ccccc2)cc1 [Malachite green oxalate*] strictly below 20 µM?
Response given: Satisfied

Challenge: Is AC50 of O=C(O)c1ccccc1C(=O)Nc1cccc2ccccc12 [Naptalam*] strictly below 20 µM?
Response given: Satisfied

* * *

Test system: lysine peptide Ac-RFAAKAA-COOH
Assay: efficacy of lysine peptide change (negative = depletion) (% activity); higher = less depletion
Conditions: incubation time: 24 h
Where a name gives a salt, the structure may show the parent alone.
Outcome: Criterion met for efficacy of lysine peptide change of at least -10; Criterion not met for anything lower.

Completed entries (count: 4):
Challenge: Could you tell me if the measured efficacy of lysine peptide change of CC(C)CCCCCCCOC(=O)c1ccc(C(=O)OCCCCCCCC(C)C)c(C(=O)OCCCCCCCC(C)C)c1 [Triisodecyl trimellitate] reaches -10 or more?
Response given: Criterion not met

Challenge: Could you tell me if the measured efficacy of lysine peptide change of Nc1ccc(/N=N/c2ccccc2)c(N)n1 [Phenazopyridine hydrochloride] reaches -10 or more?
Response given: Criterion met

Challenge: Could you tell me if the measured efficacy of lysine peptide change of CO[C@@]12[C@H](COC(N)=O)C3=C(C(=O)C(C)=C(N)C3=O)N1C[C@@H]1N[C@@H]12 reaches -10 or more?
Response given: Criterion met

Challenge: Could you tell me if the measured efficacy of lysine peptide change of C=CC(=O)OCCOC(=O)CCC(=O)O [4-[2-(Acryloyloxy)ethoxy]-4-oxobutanoic acid] reaches -10 or more?
Response given: Criterion met

Further cases:
Challenge: Could you tell me if the measured efficacy of lysine peptide change of N=C(N)NN=C(/C=C/c1ccc([N+](=O)[O-])o1)/C=C/c1ccc([N+](=O)[O-])o1 reaches -10 or more?
Response given: Criterion not met

Challenge: Could you tell me if the measured efficacy of lysine peptide change of CC(C)(C)c1ccc(C(=O)CCCCl)cc1 reaches -10 or more?
Response given: Criterion met
